Values compiled from ChEMBL document CHEMBL3885861.

Each entry below carries its reported RALB.
# Organism: Rattus norvegicus
# test_method_notes: Open TG-GATES - Regimen: Single
# Format: toxicity, organism-based, Sprague-Dawley
# Parameters: regimen Single, gender Male, age 6 weeks
# measurement_context: in vivo, po, 0 mg/kg, 24 h, tissue Plasma, route gavage, dose level Control
metric: RALB

# compound, data_value
rows = [
    ("NNC(=O)c1ccncc1 [ISONIAZID]", "3.5 g/dL"),
    ("CN(C)CCN(Cc1cccs1)c1ccccn1", "3 g/dL"),
    ("CCCNC(=O)NS(=O)(=O)c1ccc(Cl)cc1 [CHLORPROPAMIDE]", "2.6 g/dL"),
    ("COc1cc2c(c(OC)c1OC)-c1ccc(OC)c(=O)cc1[C@@H](NC(C)=O)CC2 [COLCHICINE]", "3.8 g/dL"),
]

====

# Species: Rattus norvegicus
# test_method_notes: Open TG-GATES - Regimen: Daily Repeat
# Assay type: toxicity, organism-based, Sprague-Dawley
# Parameters: regimen Daily Repeat, gender Male, age 6 weeks
# measurement_context: in vivo, po, 0 mg/kg, […], tissue Blood, route gavage, dose level Control, time 14 day

# compound, unit_descriptor, RBC
measured = [
    ("CCCNC(=O)NS(=O)(=O)c1ccc(Cl)cc1 [CHLORPROPAMIDE]", "x10_4/ul", 703.6),
    ("CN(C)CCN(Cc1cccs1)c1ccccn1", "x10_4/ul", 689.8),
    ("CC(C)OC(=O)C(C)(C)Oc1ccc(C(=O)c2ccc(Cl)cc2)cc1 [FENOFIBRATE]", "x10_4/ul", 692.6),
    ("CCOc1ccc(NC(=O)CC(C)O)cc1 (stereo not drawn)", "x10_4/ul", 694),
    ("NC(N)=Nc1nc(CSCCC(N)=NS(N)(=O)=O)cs1", "x10_4/ul", 689),
    ("CN(C)CCCN1c2ccccc2CCc2ccccc21", "x10_4/ul", 695.6),
    ("O=C(CCCN1CCC(O)(c2ccc(Cl)cc2)CC1)c1ccc(F)cc1", "x10_4/ul", 716),
    ("COc1ccc2[nH]c([S+]([O-])Cc3ncc(C)c(OC)c3C)nc2c1 (stereo not drawn)", "x10_4/ul", 711),
]

====

# Species: Rattus norvegicus
# test_method_notes: Open TG-GATES - Regimen: Single
# Format: toxicity, organism-based, Sprague-Dawley
# Set-up: regimen Single, gender Male, age 6 weeks
# measurement_context: in vivo, po, 0 mg/kg, 24 h, route gavage, dose level Control
Each entry below carries its reported TERMINAL_BW.

# compound, TERMINAL_BW [g]
measured = [
    ("COc1ccc2[nH]c([S+]([O-])Cc3ncc(C)c(OC)c3C)nc2c1 (configuration not stated)", 234.9),
    ("CCOc1ccc(NC(=O)CC(C)O)cc1 (configuration not stated)", 224),
    ("CN(C)CCN(Cc1cccs1)c1ccccn1", 200.8),
    ("CCOC(=O)CCC(=O)O[C@H]1[C@H](O[C@@H]2[C@@H](C)[C@H](O[C@H]3C[C@@](C)(OC)[C@@H](O)[C@H](C)O3)[C@@H](C)C(=O)O[C@H](CC)[C@@](C)(O)[C@H](O)[C@@H](C)C(=O)[C@H](C)C[C@@]2(C)O)O[C@H](C)C[C@@H]1N(C)C [ERYTHROMYCIN ETHYLSUCCINATE]", 227),
    ("CN1C(=O)CN=C(c2ccccc2)c2cc(Cl)ccc21", 227.4),
    ("CC1=C(/C=C/C(C)=C/C=C/C(C)=C/CO)C(C)(C)CCC1", 205.1),
    ("COC1=CC(=O)C[C@@H](C)[C@]12Oc1c(Cl)c(OC)cc(OC)c1C2=O", 224),
]
